Tested on: 935938-334-R-J1-PDC complex spheroid viability
experiment: Anticancer human tumor 935938-334-R-J1-PDC patient-derived small intestine adenocarcinoma cell line growth inhibition [POLQ]
protocol_conditions: second compound 0.0316 µM; first compound 10 µM; stronger effect = lower value
Entries and their measured viability, T/C follow.

Worked cases, viability, T/C given:
{"columns": ["compound", "test_result"],
 "data": [
  ["COc1cccc2c1C(=O)c1c(O)c3c(c(O)c1C2=O)CC(O)(C(=O)CO)CC3OC1CC(N)C(O)C(C)O1 (stereo not drawn) + COC1C(OC(N)=O)C(O)C(Oc2ccc3c(O)c(NC(=O)c4ccc(O)c(CC=C(C)C)c4)c(=O)oc3c2C)OC1(C)C", "7.78%"],
  ["COc1cc(C2c3cc4c(cc3C(OC3OC5COC(C)OC5C(O)C3O)C3COC(=O)C23)OCO4)cc(OC)c1O (stereo not drawn) + Cc1cccc(N(C)C(=O)C2C(O)CCN2c2nc(C)cc(C(F)(F)F)c2C#N)c1", "32.7%"]
]}

Alright, here's another compound for you.
Q: // query viability, T/C value for entry CC1COCCN1c1cc(C2(S(C)(=N)=O)CC2)nc(-c2ccnc3[nH]ccc23)n1 (stereo not drawn) + Cc1cccc(N(C)C(=O)C2C(O)CCN2c2nc(C)cc(C(F)(F)F)c2C#N)c1
Ans: 21.4%

----------
Test system: 935938-334-R-J1-PDC complex spheroid viability
experiment: Anticancer human tumor 935938-334-R-J1-PDC cell line growth inhibition [POLQ];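 further: spheroids exposed to drugs for seven days before viability read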;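 on viability, T/C: 100% = DMSO vehicle control wells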
protocol_conditions: second compound 1 µM; first compound 0.0316 µM; stronger effect = lower value
property_name: viability, T/C

{"columns": ["molecule", "system", "viability, T/C"],
 "data": [
  ["C=CC(=O)N1CCN(c2nc(=O)n(-c3c(C)ccnc3C(C)C)c3nc(-c4c(O)cccc4F)c(F)cc23)C(C)C1 (stereo not drawn) + COC1C(OC(N)=O)C(O)C(Oc2ccc3c(O)c(NC(=O)c4ccc(O)c(CC=C(C)C)c4)c(=O)oc3c2C)OC1(C)C", "935938-334-R-J1-PDC complex spheroid viability", "101%"],
  ["CCc1c2c(nc3ccc(O)cc13)-c1cc3c(c(=O)n1C2)COC(=O)[C@]3(O)CC + COC1C(OC(N)=O)C(O)C(Oc2ccc3c(O)c(NC(=O)c4ccc(O)c(CC=C(C)C)c4)c(=O)oc3c2C)OC1(C)C", "935938-334-R-J1-PDC complex spheroid viability", "31.5%"]
]}

Q: // query viability, T/C value for entry COc1cc2cc(C(=O)CCC(=O)O)sc2cc1OC + Nc1ccc(C#CCN(C(=O)Cc2ncc(C(F)(F)F)cc2C(F)(F)F)c2ccc(F)cc2)nn1
Ans: 89.6%

----------
Tested on: 935938-334-R-J1-PDC complex spheroid viability
experiment: Anticancer human tumor 935938-334-R-J1-PDC cell line growth inhibition [POLQ];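 further: spheroids exposed to drugs for seven days before viability read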
protocol_conditions: curve of first compound; second compound 0.316 µM
Entries and their measured pIC50 follow.
Scale: pIC50 equals -log10([C]), with [C] in mol/L.

{"columns": ["compound", "test_result"],
 "data": [
  ["COc1cc(C2c3cc4c(cc3C(OC3OC5COC(C)OC5C(O)C3O)C3COC(=O)C23)OCO4)cc(OC)c1O (centres undefined) + Cc1cccc(N(C)C(=O)C2C(O)CCN2c2nc(C)cc(C(F)(F)F)c2C#N)c1", 6.13]
]}

Alright, here's another compound for you.
Q: // query pIC50 value for entry C=CCn1c(=O)c2cnc(Nc3ccc(N4CCN(C)CC4)cc3)nc2n1-c1cccc(C(C)(C)O)n1 + COC1C(OC(N)=O)C(O)C(Oc2ccc3c(O)c(NC(=O)c4ccc(O)c(CC=C(C)C)c4)c(=O)oc3c2C)OC1(C)C
Ans: 6.14

----------
Tested on: 935938-334-R-J1-PDC complex spheroid viability
experiment: Anticancer human tumor 935938-334-R-J1-PDC cell line growth inhibition [POLQ];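 further: spheroids exposed to drugs for seven days before viability read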;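 on viability, T/C: 100% = DMSO vehicle control wells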
protocol_conditions: second compound 1 µM; first compound 0.01 µM; stronger effect = lower value
Description: Multicellular complex tumor spheroid response to Polymerase (POL) inhibitors (novobiocin, ART-558, RP6685) in combination with a variety of drugs and investigational agents in selected tumor cell lines The POL inhibitors (novobiocin, ART-558, and RP6685) were evaluated both individually and in combination with standard of care and investigational anticancer small molecules within a complex spheroid model of solid tumors. . […]
Entries and their measured viability, T/C follow.
Quick reminder: number only, in %, skip the unit.

{"columns": ["compound", "measurement_unit", "test_result"],
 "data": [
  ["Cn1ncnc1[C@H]1c2n[nH]c(=O)c3cc(F)cc(c23)N[C@@H]1c1ccc(F)cc1 + Nc1ccc(C#CCN(C(=O)Cc2ncc(C(F)(F)F)cc2C(F)(F)F)c2ccc(F)cc2)nn1", "%", 79]
]}

Q: viability, T/C of CCc1c2c(nc3ccc(O)cc13)-c1cc3c(c(=O)n1C2)COC(=O)[C@]3(O)CC + Nc1ccc(C#CCN(C(=O)Cc2ncc(C(F)(F)F)cc2C(F)(F)F)c2ccc(F)cc2)nn1 on 935938-334-R-J1-PDC complex spheroid viability?
Ans: 81.8

Q: viability, T/C of CCc1c2c(nc3ccc(O)cc13)-c1cc3c(c(=O)n1C2)COC(=O)[C@]3(O)CC + Cc1cccc(N(C)C(=O)C2C(O)CCN2c2nc(C)cc(C(F)(F)F)c2C#N)c1 on 935938-334-R-J1-PDC complex spheroid viability?
Ans: 63.2

----------
Test system: 935938-334-R-J1-PDC complex spheroid viability
experiment: Anticancer human tumor 935938-334-R-J1-PDC cell line growth inhibition [POLQ];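 further: spheroids exposed to drugs for seven days before viability read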;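 on viability, T/C: 100% = DMSO vehicle control wells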
protocol_conditions: second compound 0.316 µM; first compound 0.001 µM; stronger effect = lower value
Entries and their measured viability, T/C follow.
Quick reminder: number only, in %, skip the unit.

Worked cases, viability, T/C given:
{"columns": ["compound", "measurement_unit", "viability, T/C"],
 "data": [
  ["CC[C@@]1(O)C(=O)OCc2c1cc1n(c2=O)Cc2cc3c(CN(C)C)c(O)ccc3nc2-1 + COC1C(OC(N)=O)C(O)C(Oc2ccc3c(O)c(NC(=O)c4ccc(O)c(CC=C(C)C)c4)c(=O)oc3c2C)OC1(C)C", "%", 72.9],
  ["Cn1ncnc1[C@H]1c2n[nH]c(=O)c3cc(F)cc(c23)N[C@@H]1c1ccc(F)cc1 + COC1C(OC(N)=O)C(O)C(Oc2ccc3c(O)c(NC(=O)c4ccc(O)c(CC=C(C)C)c4)c(=O)oc3c2C)OC1(C)C", "%", 73.8],
  ["CC[C@@]1(O)C(=O)OCc2c1cc1n(c2=O)Cc2cc3c(CN(C)C)c(O)ccc3nc2-1 + Nc1ccc(C#CCN(C(=O)Cc2ncc(C(F)(F)F)cc2C(F)(F)F)c2ccc(F)cc2)nn1", "%", 130]
]}

Q: viability, T/C of CC[C@@]1(O)C(=O)OCc2c1cc1n(c2=O)Cc2cc3c(CN(C)C)c(O)ccc3nc2-1 + Cc1cccc(N(C)C(=O)C2C(O)CCN2c2nc(C)cc(C(F)(F)F)c2C#N)c1 on 935938-334-R-J1-PDC complex spheroid viability?
Ans: 102

Q: viability, T/C of Cn1ncnc1[C@H]1c2n[nH]c(=O)c3cc(F)cc(c23)N[C@@H]1c1ccc(F)cc1 + Cc1cccc(N(C)C(=O)C2C(O)CCN2c2nc(C)cc(C(F)(F)F)c2C#N)c1 on 935938-334-R-J1-PDC complex spheroid viability?
Ans: 107

Q: viability, T/C of Cn1ncnc1[C@H]1c2n[nH]c(=O)c3cc(F)cc(c23)N[C@@H]1c1ccc(F)cc1 + Nc1ccc(C#CCN(C(=O)Cc2ncc(C(F)(F)F)cc2C(F)(F)F)c2ccc(F)cc2)nn1 on 935938-334-R-J1-PDC complex spheroid viability?
Ans: 104

----------
Entries and their measured viability, T/C follow.
Test system: 935938-334-R-J1-PDC complex spheroid viability
experiment: Anticancer human tumor 935938-334-R-J1-PDC cell line growth inhibition [POLQ];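 further: spheroids exposed to drugs for seven days before viability read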;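 on viability, T/C: 100% = DMSO vehicle control wells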
protocol_conditions: second compound 0.0316 µM; first compound 0.01 µM; stronger effect = lower value
Quick reminder: number only, in %, skip the unit.

Q: viability, T/C of Cn1ncnc1[C@H]1c2n[nH]c(=O)c3cc(F)cc(c23)N[C@@H]1c1ccc(F)cc1 + Nc1ccc(C#CCN(C(=O)Cc2ncc(C(F)(F)F)cc2C(F)(F)F)c2ccc(F)cc2)nn1 on 935938-334-R-J1-PDC complex spheroid viability?
Ans: 73.1

----------
Entries and their measured viability, T/C follow.
System: 935938-334-R-J1-PDC complex spheroid viability
experiment: Anticancer human tumor 935938-334-R-J1-PDC cell line growth inhibition [POLQ];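 further: spheroids exposed to drugs for seven days before viability read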;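 on viability, T/C: 100% = DMSO vehicle control wells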
protocol_conditions: second compound 0.316 µM; first compound 0.316 µM; stronger effect = lower value

Q: // query viability, T/C value for entry CCc1cc2c(N3CCc4c(cc(Cn5ccnc5)cc4-c4cn(C)nc4C(F)(F)F)C3=O)ccnc2c(OC)n1 + Nc1ccc(C#CCN(C(=O)Cc2ncc(C(F)(F)F)cc2C(F)(F)F)c2ccc(F)cc2)nn1
Ans: 67.9%

Q: // query viability, T/C value for entry CC1COCCN1c1cc(C2(O)CC3CCC(C2)O3)c2cnn(-c3ccn[nH]3)c2n1 (stereo not drawn) + Nc1ccc(C#CCN(C(=O)Cc2ncc(C(F)(F)F)cc2C(F)(F)F)c2ccc(F)cc2)nn1
Ans: 34.7%

Q: // query viability, T/C value for entry CCc1cc2c(N3CCc4c(cc(Cn5ccnc5)cc4-c4cn(C)nc4C(F)(F)F)C3=O)cc(C)nc2c(OC)n1 + Cc1cccc(N(C)C(=O)C2C(O)CCN2c2nc(C)cc(C(F)(F)F)c2C#N)c1
Ans: 62.4%
